FYI, the data here is from PubChem BioAssay AID2060612.

- System: 565232-114-T-J1-PDC complex spheroid viability
- procedure details: Anticancer human tumor 565232-114-T-J1-PDC patient-derived bladder carcinoma cell line growth inhibition [CLK]
- test context: second compound 0.0316 µM; first compound 3.16 µM; stronger effect = lower value
Here, each record is paired with measured viability, T/C data.
Write the value in % as a bare number.

Task item: Entry under review: O=c1[nH]cc(F)c(=O)[nH]1 + CN1CCN(c2cc(C(=O)Nc3cc4cc(-c5cnn(C)c5)ccc4cn3)ccn2)CC1 . Reported viability, T/C?
Reply: 123

Task item: Entry under review: CC1(C)CCC(CN2CCN(c3ccc(C(=O)NS(=O)(=O)c4ccc(NCC5CCOCC5)c([N+](=O)[O-])c4)c(Oc4cnc5[nH]ccc5c4)c3)CC2)=C(c2ccc(Cl)cc2)C1 + CNC(=O)c1ccc(Nc2nc(OC3CCCC3)c3c(-c4ccc5nc(C)oc5c4)c[nH]c3n2)c(OC)c1 . Reported viability, T/C?
Reply: 92.7

Task item: Entry under review: O=c1[nH]cc(F)c(=O)[nH]1 + CNC(=O)c1ccc(Nc2nc(OC3CCCC3)c3c(-c4ccc5nc(C)oc5c4)c[nH]c3n2)c(OC)c1 . Reported viability, T/C?
Reply: 87.3

Okay, next one:
Task item: Entry under review: Nc1ccn(C2OC(CO)C(O)C2(F)F)c(=O)n1 (stereo not given) + CN1CCN(c2cc(C(=O)Nc3cc4cc(-c5cnn(C)c5)ccc4cn3)ccn2)CC1 . Reported viability, T/C?
Reply: 38

====

Here, each record is paired with measured pIC50 data.
- System: 565232-114-T-J1-PDC complex spheroid viability
- procedure details: Anticancer human tumor 565232-114-T-J1-PDC cell line growth inhibition [CLK];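 note: spheroids exposed to compounds for 7 days before readout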
- test context: curve of first compound; second compound 0.1 µM
pIC50: −log10 of the molar value.

Please review the following examples before continuing.
Task item: Entry under review: CC(Nc1ccc2c(c1)OCCn1cc(N3C(=O)OCC3C(F)F)nc1-2)C(N)=O (stereo not drawn) + CNC(=O)c1ccc(Nc2nc(OC3CCCC3)c3c(-c4ccc5nc(C)oc5c4)c[nH]c3n2)c(OC)c1 . Reported pIC50?
Reply: > 7.50

Task item: Entry under review: C#Cc1c(F)ccc2cc(O)cc(-c3ncc4c(N5CC6CCC(C5)N6)nc(OCC56CCCN5CC(F)C6)nc4c3F)c12 (stereo not drawn) + CNC(=O)c1ccc(Nc2nc(OC3CCCC3)c3c(-c4ccc5nc(C)oc5c4)c[nH]c3n2)c(OC)c1 . Reported pIC50?
Reply: > 7.50

More entries:
Task item: Entry under review: O=c1[nH]cc(F)c(=O)[nH]1 + CNC(=O)c1ccc(Nc2nc(OC3CCCC3)c3c(-c4ccc5nc(C)oc5c4)c[nH]c3n2)c(OC)c1 . Reported pIC50?
Reply: > 7.50

====

Here, each record is paired with measured pIC50 data.
- System: 565232-114-T-J1-PDC complex spheroid viability
- procedure details: Anticancer human tumor 565232-114-T-J1-PDC cell line growth inhibition [CLK];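 note: spheroids exposed to compounds for 7 days before readout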
- test context: curve of first compound; second compound 3.16 µM
pIC50: −log10 of the molar value.

Task item: Lab request: please report pIC50 under test system 565232-114-T-J1-PDC complex spheroid viability for C=CC(=O)Nc1cc(Nc2nccc(-c3cn(C)c4ccccc34)n2)c(OC)cc1N(C)CCN(C)C + CNC(=O)c1ccc(Nc2nc(OC3CCCC3)c3c(-c4ccc5nc(C)oc5c4)c[nH]c3n2)c(OC)c1
Reply: > 9.02

Task item: Lab request: please report pIC50 under test system 565232-114-T-J1-PDC complex spheroid viability for C=CC(=O)N1CCN(c2nc(=O)n(-c3c(C)ccnc3C(C)C)c3nc(-c4c(O)cccc4F)c(F)cc23)C(C)C1 (centres undefined) + CNC(=O)c1ccc(Nc2nc(OC3CCCC3)c3c(-c4ccc5nc(C)oc5c4)c[nH]c3n2)c(OC)c1
Reply: > 7.50

Task item: Lab request: please report pIC50 under test system 565232-114-T-J1-PDC complex spheroid viability for CCN1CCN(Cc2ccc(Nc3ncc(F)c(-c4cc(F)c5nc(C)n(C(C)C)c5c4)n3)nc2)CC1 + CNC(=O)c1ccc(Nc2nc(OC3CCCC3)c3c(-c4ccc5nc(C)oc5c4)c[nH]c3n2)c(OC)c1
Reply: > 8.50

Task item: Lab request: please report pIC50 under test system 565232-114-T-J1-PDC complex spheroid viability for COC1C=CCC(C)C(C)S(=O)(=O)NC(=O)c2ccc3c(c2)N(CC2CCC21)CC1(CCCc2cc(Cl)ccc21)CO3 (centres undefined) + CNC(=O)c1ccc(Nc2nc(OC3CCCC3)c3c(-c4ccc5nc(C)oc5c4)c[nH]c3n2)c(OC)c1
Reply: > 7.50

Task item: Lab request: please report pIC50 under test system 565232-114-T-J1-PDC complex spheroid viability for CCc1c2c(nc3ccc(O)cc13)-c1cc3c(c(=O)n1C2)COC(=O)[C@]3(O)CC + CNC(=O)c1ccc(Nc2nc(OC3CCCC3)c3c(-c4ccc5nc(C)oc5c4)c[nH]c3n2)c(OC)c1
Reply: > 8.50

Task item: Lab request: please report pIC50 under test system 565232-114-T-J1-PDC complex spheroid viability for CCCS(=O)(=O)Nc1ccc(F)c(C(=O)c2c[nH]c3ncc(-c4ccc(Cl)cc4)cc23)c1F + CNC(=O)c1ccc(Nc2nc(OC3CCCC3)c3c(-c4ccc5nc(C)oc5c4)c[nH]c3n2)c(OC)c1
Reply: > 7.50

Task item: Lab request: please report pIC50 under test system 565232-114-T-J1-PDC complex spheroid viability for CC(=O)O[C@H]1C(=O)[C@@]2(C)[C@H]([C@H](OC(=O)c3ccccc3)[C@]3(O)C[C@H](OC(=O)[C@H](O)[C@@H](NC(=O)c4ccccc4)c4ccccc4)C(C)=C1C3(C)C)[C@]1(OC(C)=O)CO[C@@H]1C[C@@H]2O + CN1CCN(c2cc(C(=O)Nc3cc4cc(-c5cnn(C)c5)ccc4cn3)ccn2)CC1
Reply: > 7.50

Task item: Lab request: please report pIC50 under test system 565232-114-T-J1-PDC complex spheroid viability for COc1ccc([C@@H](O)c2cc(-c3ncnc4cc(N5CCOCC5)ccc34)c(F)cc2Cl)nn1 + CNC(=O)c1ccc(Nc2nc(OC3CCCC3)c3c(-c4ccc5nc(C)oc5c4)c[nH]c3n2)c(OC)c1
Reply: > 7.50

Task item: Lab request: please report pIC50 under test system 565232-114-T-J1-PDC complex spheroid viability for Nc1ccn(C2OC(CO)C(O)C2(F)F)c(=O)n1 (centres undefined) + CN1CCN(c2cc(C(=O)Nc3cc4cc(-c5cnn(C)c5)ccc4cn3)ccn2)CC1
Reply: > 7.50
